tested.target: N-type calcium channel (NTCC) (Homo sapiens)
Sequence (Q00975 whole entry): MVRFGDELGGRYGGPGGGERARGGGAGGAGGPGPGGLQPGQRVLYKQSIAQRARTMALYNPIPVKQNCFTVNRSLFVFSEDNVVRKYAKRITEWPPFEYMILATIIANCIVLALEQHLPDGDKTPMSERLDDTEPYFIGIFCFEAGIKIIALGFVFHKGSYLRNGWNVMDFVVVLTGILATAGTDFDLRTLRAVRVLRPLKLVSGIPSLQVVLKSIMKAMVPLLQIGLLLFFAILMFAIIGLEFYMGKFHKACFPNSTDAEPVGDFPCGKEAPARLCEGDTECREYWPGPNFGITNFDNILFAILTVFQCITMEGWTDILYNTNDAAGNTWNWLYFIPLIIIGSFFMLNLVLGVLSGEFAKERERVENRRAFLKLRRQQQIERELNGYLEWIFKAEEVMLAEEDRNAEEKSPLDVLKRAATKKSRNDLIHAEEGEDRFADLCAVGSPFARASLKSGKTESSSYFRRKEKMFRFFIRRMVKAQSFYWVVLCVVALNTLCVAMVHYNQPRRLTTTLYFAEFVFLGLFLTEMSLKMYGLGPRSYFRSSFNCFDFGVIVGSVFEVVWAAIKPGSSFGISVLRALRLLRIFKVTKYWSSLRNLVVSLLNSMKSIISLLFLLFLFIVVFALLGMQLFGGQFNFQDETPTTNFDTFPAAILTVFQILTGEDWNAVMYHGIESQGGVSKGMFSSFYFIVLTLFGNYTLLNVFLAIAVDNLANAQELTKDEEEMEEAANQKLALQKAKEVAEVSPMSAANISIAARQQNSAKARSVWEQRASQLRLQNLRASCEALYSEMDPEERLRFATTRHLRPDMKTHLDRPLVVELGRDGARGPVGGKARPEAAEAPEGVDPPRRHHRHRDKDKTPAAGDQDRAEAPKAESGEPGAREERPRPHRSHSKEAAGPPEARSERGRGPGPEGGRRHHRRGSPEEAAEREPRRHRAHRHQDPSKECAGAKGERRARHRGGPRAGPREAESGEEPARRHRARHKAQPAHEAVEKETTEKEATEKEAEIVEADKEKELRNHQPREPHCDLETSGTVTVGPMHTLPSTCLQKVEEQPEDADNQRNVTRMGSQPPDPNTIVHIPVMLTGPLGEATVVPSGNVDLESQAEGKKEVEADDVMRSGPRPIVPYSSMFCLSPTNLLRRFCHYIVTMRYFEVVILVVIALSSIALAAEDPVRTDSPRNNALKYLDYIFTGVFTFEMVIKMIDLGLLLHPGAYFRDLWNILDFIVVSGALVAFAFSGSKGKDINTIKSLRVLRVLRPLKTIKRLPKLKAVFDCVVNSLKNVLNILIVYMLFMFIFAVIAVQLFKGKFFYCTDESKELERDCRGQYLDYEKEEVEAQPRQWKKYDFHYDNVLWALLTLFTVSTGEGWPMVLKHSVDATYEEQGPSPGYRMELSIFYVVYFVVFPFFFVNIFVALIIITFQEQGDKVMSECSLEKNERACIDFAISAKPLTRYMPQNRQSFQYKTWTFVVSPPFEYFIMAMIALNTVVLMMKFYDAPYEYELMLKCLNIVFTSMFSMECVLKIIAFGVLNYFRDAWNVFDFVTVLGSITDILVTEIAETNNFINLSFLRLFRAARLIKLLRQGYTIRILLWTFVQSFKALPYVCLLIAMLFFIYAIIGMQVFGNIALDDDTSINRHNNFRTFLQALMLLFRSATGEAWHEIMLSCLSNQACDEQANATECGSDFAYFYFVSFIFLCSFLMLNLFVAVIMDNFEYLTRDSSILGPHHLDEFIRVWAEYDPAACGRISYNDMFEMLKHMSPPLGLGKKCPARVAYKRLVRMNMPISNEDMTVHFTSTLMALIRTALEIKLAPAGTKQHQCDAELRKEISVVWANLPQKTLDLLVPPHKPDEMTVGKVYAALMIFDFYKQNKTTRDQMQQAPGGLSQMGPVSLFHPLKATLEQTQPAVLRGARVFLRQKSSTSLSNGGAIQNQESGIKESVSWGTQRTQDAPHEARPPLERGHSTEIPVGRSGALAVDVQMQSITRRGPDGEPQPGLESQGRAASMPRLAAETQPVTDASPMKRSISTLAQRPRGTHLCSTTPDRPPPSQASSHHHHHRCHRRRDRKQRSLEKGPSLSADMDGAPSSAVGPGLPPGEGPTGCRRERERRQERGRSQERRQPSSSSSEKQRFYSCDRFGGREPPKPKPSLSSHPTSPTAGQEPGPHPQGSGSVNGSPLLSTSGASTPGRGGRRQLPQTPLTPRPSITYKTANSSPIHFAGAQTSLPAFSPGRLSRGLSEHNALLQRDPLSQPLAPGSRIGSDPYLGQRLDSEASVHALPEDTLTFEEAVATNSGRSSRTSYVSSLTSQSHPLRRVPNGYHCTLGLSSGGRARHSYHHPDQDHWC
Sequence (P54289 25-956 partner limits assumed): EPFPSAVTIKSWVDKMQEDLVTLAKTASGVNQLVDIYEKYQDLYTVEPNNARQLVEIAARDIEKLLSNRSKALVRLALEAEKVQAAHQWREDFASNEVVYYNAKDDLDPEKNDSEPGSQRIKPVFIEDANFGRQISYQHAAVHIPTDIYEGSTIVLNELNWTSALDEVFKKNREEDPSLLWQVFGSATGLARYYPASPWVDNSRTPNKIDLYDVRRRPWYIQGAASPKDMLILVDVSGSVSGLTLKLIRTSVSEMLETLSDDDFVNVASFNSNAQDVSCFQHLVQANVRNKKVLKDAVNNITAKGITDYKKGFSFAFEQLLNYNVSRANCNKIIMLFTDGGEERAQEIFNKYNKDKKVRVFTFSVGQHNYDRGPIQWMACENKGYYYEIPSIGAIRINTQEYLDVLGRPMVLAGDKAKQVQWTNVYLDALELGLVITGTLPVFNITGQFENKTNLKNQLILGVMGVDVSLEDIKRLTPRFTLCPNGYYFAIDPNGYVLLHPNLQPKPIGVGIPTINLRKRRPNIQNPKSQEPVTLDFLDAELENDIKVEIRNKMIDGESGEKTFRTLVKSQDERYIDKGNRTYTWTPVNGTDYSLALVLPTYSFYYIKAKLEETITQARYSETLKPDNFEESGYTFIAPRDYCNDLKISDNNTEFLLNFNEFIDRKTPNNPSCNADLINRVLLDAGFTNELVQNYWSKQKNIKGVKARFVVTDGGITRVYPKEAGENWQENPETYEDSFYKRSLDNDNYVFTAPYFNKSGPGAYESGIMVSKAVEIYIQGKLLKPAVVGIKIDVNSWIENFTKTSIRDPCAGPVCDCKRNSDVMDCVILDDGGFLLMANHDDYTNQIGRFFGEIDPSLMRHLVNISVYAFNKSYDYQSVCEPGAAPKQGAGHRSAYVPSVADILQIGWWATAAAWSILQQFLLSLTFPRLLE
Sequence (P54289 957-1103 partner limits assumed): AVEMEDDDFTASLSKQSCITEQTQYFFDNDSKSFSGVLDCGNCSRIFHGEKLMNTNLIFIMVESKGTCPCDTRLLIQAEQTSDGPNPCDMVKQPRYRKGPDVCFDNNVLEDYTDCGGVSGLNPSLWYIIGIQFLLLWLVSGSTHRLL
Sequence (P54284 whole entry partner): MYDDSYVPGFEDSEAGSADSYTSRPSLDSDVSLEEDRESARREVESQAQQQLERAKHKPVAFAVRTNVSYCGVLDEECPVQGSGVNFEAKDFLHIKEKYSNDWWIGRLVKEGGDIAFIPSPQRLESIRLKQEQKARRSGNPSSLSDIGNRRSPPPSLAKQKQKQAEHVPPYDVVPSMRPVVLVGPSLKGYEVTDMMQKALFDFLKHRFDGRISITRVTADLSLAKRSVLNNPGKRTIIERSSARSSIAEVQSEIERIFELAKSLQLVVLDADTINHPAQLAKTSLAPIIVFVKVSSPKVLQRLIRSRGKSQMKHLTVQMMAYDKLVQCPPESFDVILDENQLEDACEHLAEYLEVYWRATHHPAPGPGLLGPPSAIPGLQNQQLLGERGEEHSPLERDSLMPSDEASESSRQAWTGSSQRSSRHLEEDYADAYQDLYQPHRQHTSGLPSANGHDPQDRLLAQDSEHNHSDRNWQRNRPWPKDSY
protocol.description: FLIPR calcium mobilization assay for N-type calcium channel
particulars: calcium mobilization in vitro assay; differentiated IMR32 cells
measurement.label: pIC50
Expect pIC50 as a plain number equal to -log10 of the molar concentration.

The examples below pair each entry with its known result.
1) COc1ccc(CN[C@H](C(=O)N2CCC(N(C(C)C)S(=O)(=O)c3cccc(C(F)(F)F)c3)CC2)C(C)C)cc1 [Compound 88a] ... 5.76
2) O=C(CC(=O)N1CCC(N(C2CC2)S(=O)(=O)c2cccc(Cl)c2)CC1)Nc1ccc(F)cc1F ... 5.05
3) CC(C)N(C1CCN(C(=O)CNCc2ccccc2)CC1)S(=O)(=O)c1cccc(C(F)(F)F)c1 ... 6.25

The reported value for COc1ccc(OC)c(NCCC(=O)N2CCC(N(C(C)C)S(=O)(=O)c3cccc(C(F)(F)F)c3)CC2)c1 in terms of pIC50 is 6.12

Entry source: patent US8791264B2
